target-desc: DCAF15 (Homo sapiens (Human), UniProt Q66K64)
Sequence (Q66K64 whole entry): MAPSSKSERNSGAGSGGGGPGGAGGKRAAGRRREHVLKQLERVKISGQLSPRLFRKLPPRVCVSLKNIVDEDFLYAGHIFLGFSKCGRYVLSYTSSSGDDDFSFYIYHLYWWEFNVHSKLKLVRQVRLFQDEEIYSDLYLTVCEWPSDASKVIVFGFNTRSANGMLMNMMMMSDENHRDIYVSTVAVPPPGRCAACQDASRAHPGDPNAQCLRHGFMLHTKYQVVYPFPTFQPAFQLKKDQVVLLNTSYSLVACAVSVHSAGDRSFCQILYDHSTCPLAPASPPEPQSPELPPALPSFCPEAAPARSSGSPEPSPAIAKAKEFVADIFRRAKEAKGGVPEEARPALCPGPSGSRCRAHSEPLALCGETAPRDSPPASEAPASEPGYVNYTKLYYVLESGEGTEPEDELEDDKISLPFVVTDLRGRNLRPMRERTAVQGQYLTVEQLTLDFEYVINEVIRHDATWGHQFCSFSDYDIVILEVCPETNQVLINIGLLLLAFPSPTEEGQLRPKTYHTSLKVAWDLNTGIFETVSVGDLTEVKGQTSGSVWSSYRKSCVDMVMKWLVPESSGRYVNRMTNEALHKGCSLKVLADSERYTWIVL
Sequence (Q16531 whole entry partner): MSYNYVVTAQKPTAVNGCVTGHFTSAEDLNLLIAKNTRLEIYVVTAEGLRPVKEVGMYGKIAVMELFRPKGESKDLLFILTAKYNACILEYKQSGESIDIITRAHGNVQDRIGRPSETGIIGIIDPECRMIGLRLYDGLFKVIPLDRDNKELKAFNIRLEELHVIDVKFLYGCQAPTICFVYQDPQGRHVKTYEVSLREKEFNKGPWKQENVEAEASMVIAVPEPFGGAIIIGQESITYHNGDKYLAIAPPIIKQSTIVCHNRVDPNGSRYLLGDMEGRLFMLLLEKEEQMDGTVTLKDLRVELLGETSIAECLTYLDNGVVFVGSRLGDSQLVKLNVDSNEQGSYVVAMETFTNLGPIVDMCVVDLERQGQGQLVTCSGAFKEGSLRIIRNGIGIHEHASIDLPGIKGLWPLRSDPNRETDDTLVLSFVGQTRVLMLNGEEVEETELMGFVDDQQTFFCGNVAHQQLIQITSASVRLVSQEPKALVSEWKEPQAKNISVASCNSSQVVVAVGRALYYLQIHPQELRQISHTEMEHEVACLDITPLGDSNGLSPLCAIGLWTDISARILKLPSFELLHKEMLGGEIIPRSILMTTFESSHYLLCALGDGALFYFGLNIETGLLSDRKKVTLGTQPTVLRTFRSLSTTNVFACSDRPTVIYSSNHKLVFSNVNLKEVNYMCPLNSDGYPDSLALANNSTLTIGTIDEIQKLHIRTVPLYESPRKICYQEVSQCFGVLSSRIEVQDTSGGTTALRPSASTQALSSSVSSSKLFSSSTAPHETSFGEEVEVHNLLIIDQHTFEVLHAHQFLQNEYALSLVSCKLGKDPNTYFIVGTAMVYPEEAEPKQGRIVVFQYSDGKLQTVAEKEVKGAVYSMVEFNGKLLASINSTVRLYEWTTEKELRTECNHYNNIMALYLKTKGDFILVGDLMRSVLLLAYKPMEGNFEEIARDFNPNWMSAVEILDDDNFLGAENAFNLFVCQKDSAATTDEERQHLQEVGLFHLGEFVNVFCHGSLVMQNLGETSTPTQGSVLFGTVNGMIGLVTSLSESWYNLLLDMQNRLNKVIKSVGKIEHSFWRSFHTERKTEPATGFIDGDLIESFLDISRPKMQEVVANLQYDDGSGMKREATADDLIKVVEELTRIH
protocol-description: HTRF competition assay, binary interaction with DCAF15
measurement-context: competition with Alexa Fluor 647 tracer
value-kind: IC50

The observed IC50 for O=C1CCSc2ccc(S(=O)(=O)Nc3ccc(Cl)c4c(Cl)c[nH]c34)cc2N1 [Compound 49] when tested with DCAF15 (Homo sapiens (Human), UniProt Q66K64) stands at 1 to 10 µM

The observed IC50 for O=C1Nc2ccc(S(=O)(=O)Nc3ccc(Cl)c4c(Cl)c[nH]c34)cc2C1=O [Compound 14] when tested with DCAF15 (Homo sapiens (Human), UniProt Q66K64) stands at 1 to 10 µM

The observed IC50 for O=C1NS(=O)(=O)c2ccc(S(=O)(=O)Nc3ccc(Cl)c4c(Cl)c[nH]c34)cc21 [Compound 23] when tested with DCAF15 (Homo sapiens (Human), UniProt Q66K64) stands at 1 to 10 µM

The observed IC50 for CC1(C)Cc2cc(S(=O)(=O)Nc3ccc(Cl)c4c(Cl)c[nH]c34)ccc2O1 [Compound 9] when tested with DCAF15 (Homo sapiens (Human), UniProt Q66K64) stands at > 100 µM

* * *

target-desc: DCAF15 (Homo sapiens (Human))
protocol-description: HTRF competition assay, binary interaction with DCAF15
measurement-context: competition with Alexa Fluor 647 tracer
Procedure: Example 8: Measurement of Binary Interaction Between Compounds and DCAF15 Using Homogeneous Time Resolved Fluorescence (HTRF) DCAF15 interactions with test compounds were monitored using HTRF competition assays (Cisbio, Bedford, MA). […] The final mixture was incubated for an hour at room temperature and spun down briefly before data collection at 615 nm and 666 nm using EnVision 2104 Multilabel Plate Reader (Perkin Elmer, Bedford, MA). […]
pIC50: −log10 of the molar value.
So I've got a bunch of compounds here, and I need their pIC50 values.

CC1(C)CC(=O)Nc2ccc(S(=O)(=O)Nc3ccc(Cl)c4c(Cl)c[nH]c34)cc21 yielded pIC50 of 5.00 to 6.00

CN1Cc2cc(S(=O)(=O)Nc3ccc(Cl)c4c(Cl)c[nH]c34)ccc2OC1=O yielded pIC50 of 5.00 to 6.00

O=C1CCc2ccc(S(=O)(=O)Nc3ccc(Cl)c4c(Cl)c[nH]c34)cc21 yielded pIC50 of 5.00 to 6.00

Cn1c(=O)oc2cc(S(=O)(=O)Nc3ccc(Cl)c4c(Cl)c[nH]c34)ccc21 yielded pIC50 of 5.00 to 6.00

CC(=O)N[C@H]1Cc2ccc(S(=O)(=O)Nc3ccc(Cl)c4c(Cl)c[nH]c34)cc2C1 yielded pIC50 of 5.00 to 6.00

CC(C)(C)OC(=O)N1CCCc2cc(S(=O)(=O)Nc3ccc(Cl)c4c(Cl)c[nH]c34)ccc2C1 yielded pIC50 of 5.00 to 6.00

CC(=O)N1CCc2cc(S(=O)(=O)Nc3ccc(Cl)c4c(Cl)c[nH]c34)ccc21 yielded pIC50 of 5.00 to 6.00

O=S(=O)(Nc1ccc(Cl)c2c(Cl)c[nH]c12)c1ccc2c(c1)OC(F)(F)O2 yielded pIC50 of 5.00 to 6.00

O=S(=O)(Nc1ccc(Cl)c2c(Cl)c[nH]c12)c1ccc2c(c1)CC[C@@H](C(F)F)O2 yielded pIC50 of 4.00 to 5.00

Cn1c(=O)n(C)c2cc(S(=O)(=O)Nc3ccc(Cl)c4c(Cl)c[nH]c34)ccc21 yielded pIC50 of 4.00 to 5.00

O=S(=O)(Nc1ccc(Cl)c2c(Cl)c[nH]c12)c1ccc2ccccc2c1F yielded pIC50 of 5.00 to 6.00

O=C1OCc2ccc(S(=O)(=O)Nc3ccc(Cl)c4c(Cl)c[nH]c34)cc21 yielded pIC50 of 5.00 to 6.00

* * *

target-desc: DCAF15/RBM39 (Homo sapiens (Human), UniProt Q14498+Q66K64)
Sequence (Q66K64 whole entry, species assumed): as the sequence (Q66K64 whole entry) above
Sequence (Q14498 whole entry, species assumed): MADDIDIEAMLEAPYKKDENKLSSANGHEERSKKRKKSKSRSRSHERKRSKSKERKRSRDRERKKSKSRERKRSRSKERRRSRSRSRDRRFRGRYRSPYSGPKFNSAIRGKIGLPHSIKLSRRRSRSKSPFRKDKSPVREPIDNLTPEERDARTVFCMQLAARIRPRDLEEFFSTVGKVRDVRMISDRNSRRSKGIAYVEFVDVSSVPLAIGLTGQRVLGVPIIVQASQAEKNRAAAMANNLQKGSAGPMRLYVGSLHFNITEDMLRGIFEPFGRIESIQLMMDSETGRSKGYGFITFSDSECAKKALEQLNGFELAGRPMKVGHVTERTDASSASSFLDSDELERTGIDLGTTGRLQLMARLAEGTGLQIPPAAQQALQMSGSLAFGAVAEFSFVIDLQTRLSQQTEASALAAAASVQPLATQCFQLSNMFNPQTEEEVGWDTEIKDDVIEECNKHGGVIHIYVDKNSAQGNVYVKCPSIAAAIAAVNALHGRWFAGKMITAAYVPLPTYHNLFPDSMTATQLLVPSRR
Sequence (Q16531 whole entry partner, species assumed): as the sequence (Q16531 whole entry partner) above
protocol-description: AlphaLISA compound-induced DCAF15-RBM39 ternary complex formation
measurement-context: His-tagged DCAF15 complex and biotin-carrying RBM39
Protocol: Example 7: Quantitative Evaluation of Compound-Induced Ternary Complex Formation Using Amplified Luminescent Proximity Homogeneous Assay Compound-induced DCAF15-RBM39 ternary complex formation was monitored using AlphaLISA® assays (Perkin Elmer, Waltham, MA). […] Signals were recorded using EnVision 2104 Multilabel Plate Reader (Perkin Elmer, Waltham, MA) and titration curves were generated in GraphPad Prism (7.00, GraphPad, La Jolla, CA).
pEC50: −log10 of the molar value.
So I've got a bunch of compounds here, and I need their pEC50 values.

O=S(=O)(Nc1ccc(Cl)c2c(Cl)c[nH]c12)c1ccc2ccccc2c1F yielded pEC50 of ≥ 6.00

O=C1CCc2cc(S(=O)(=O)Nc3ccc(Cl)c4c(Cl)c[nH]c34)c(F)cc2N1 yielded pEC50 of 5.00 to 6.00

Cn1c(=O)oc2cc(S(=O)(=O)Nc3ccc(Cl)c4c(Cl)c[nH]c34)ccc21 yielded pEC50 of ≥ 6.00

O=C1CSc2ccc(S(=O)(=O)Nc3ccc(Cl)c4c(Cl)c[nH]c34)cc2N1 yielded pEC50 of ≥ 6.00
